# TARGET OF ASSAY: RmlA Q83A (Salmonella typhimurium, UniProt P26393, Q83A)
# Construct: His6 (pET28a) (N); made in house; host or cells: Escherichia coli BL21 (DE3)
# Sequence (P26393 whole entry Q83A): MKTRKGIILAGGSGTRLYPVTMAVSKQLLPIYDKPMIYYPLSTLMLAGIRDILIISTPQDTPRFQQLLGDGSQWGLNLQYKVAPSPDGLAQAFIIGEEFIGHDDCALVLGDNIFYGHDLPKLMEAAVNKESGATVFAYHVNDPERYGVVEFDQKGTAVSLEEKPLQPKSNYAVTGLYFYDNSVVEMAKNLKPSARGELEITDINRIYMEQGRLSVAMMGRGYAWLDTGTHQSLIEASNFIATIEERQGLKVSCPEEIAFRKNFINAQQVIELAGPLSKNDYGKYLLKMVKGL
# EXPERIMENT SUMMARY: Relative activity of RmlA mutant Q83A with alternative NTPs
# Format: biochemical, Salmonella enterica typhimurium LT2
# REPORTED CONDITIONS: 10 mM Glucose-1-phosphate, 0.1-10 μM enzyme, 5 mM NTP, 10 mM MgCl2, pH 8.0, 37° C.
Quick reference for Relative activity of Q83A as compared to wt RmlA among some compounds
ASSAY METRIC: Relative activity of Q83A as compared to wt RmlA

>>> observed_result("Nc1ccn([C@H]2C[C@H](O)[C@@H](COP(=O)(O)OP(=O)(O)OP(=O)(O)O)O2)c(=O)n1 [dCTP, 2′-deoxycytidine-5′-triphosphate]")
0.8
>>> observed_result("Nc1nc2c(ncn2[C@@H]2O[C@H](COP(=O)(O)OP(=O)(O)OP(=O)(O)O)[C@@H](O)[C@H]2O)c(=O)[nH]1 [GTP, guanosine-5′-triphosphate]")
0.7
>>> observed_result("Nc1nc2c(ncn2[C@H]2C[C@H](O)[C@@H](COP(=O)(O)OP(=O)(O)OP(=O)(O)O)O2)c(=O)[nH]1 [dGTP, 2′-deoxyguanosine-5′-triphosphate]")
0.2

---

Quick reference for Relative activity of Q83D as compared to wt RmlA among some molecules
# TARGET OF ASSAY: RmlA Q83D (Salmonella typhimurium, UniProt P26393, Q83D)
# Construct: using BSA as a standard, and a molecular mass of 34.6 kDa; His6 (pET28a) (N); made in house; host or cells: Escherichia coli BL21 (DE3)
# Sequence (P26393 whole entry Q83D): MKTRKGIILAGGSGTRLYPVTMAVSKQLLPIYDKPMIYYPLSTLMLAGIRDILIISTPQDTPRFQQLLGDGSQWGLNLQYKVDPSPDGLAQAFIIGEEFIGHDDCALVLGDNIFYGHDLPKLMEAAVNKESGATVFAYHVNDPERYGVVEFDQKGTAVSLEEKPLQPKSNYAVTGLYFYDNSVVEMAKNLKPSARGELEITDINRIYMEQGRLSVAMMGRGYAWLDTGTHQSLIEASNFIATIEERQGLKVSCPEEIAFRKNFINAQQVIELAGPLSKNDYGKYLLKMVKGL
# EXPERIMENT SUMMARY: Relative activity of RmlA mutant Q83D with alternative NTPs
# Assay type: biochemical, Salmonella enterica typhimurium LT2
# REPORTED CONDITIONS: 10 mM Glucose-1-phosphate, 0.1-10 μM enzyme, 5 mM NTP, 10 mM MgCl2, pH 8.0, 37° C.
ASSAY METRIC: Relative activity of Q83D as compared to wt RmlA

>>> observed_result("Nc1ncnc2c1ncn2[C@@H]1O[C@H](COP(=O)(O)OP(=O)(O)OP(=O)(O)O)[C@@H](O)[C@H]1O [ATP, adenosine-5′-triphosphate]")
0.6
>>> observed_result("Cc1cn([C@H]2C[C@H](O)[C@@H](COP(=O)(O)OP(=O)(O)OP(=O)(O)O)O2)c(=O)[nH]c1=O [dTTP, 2′deoxythymidine-5′-triphosphate]")
0.2
>>> observed_result("Nc1nc2c(ncn2[C@@H]2O[C@H](COP(=O)(O)OP(=O)(O)OP(=O)(O)O)[C@@H](O)[C@H]2O)c(=O)[nH]1 [GTP, guanosine-5′-triphosphate]")
3.7

---

Quick reference for Relative activity of Q83N as compared to wt RmlA among some molecules
# TARGET OF ASSAY: RmlA Q83N (Salmonella typhimurium, UniProt P26393, Q83N)
# Construct: His6 (pET28a) (N); made in house; host or cells: Escherichia coli BL21 (DE3)
# Sequence (P26393 whole entry Q83N): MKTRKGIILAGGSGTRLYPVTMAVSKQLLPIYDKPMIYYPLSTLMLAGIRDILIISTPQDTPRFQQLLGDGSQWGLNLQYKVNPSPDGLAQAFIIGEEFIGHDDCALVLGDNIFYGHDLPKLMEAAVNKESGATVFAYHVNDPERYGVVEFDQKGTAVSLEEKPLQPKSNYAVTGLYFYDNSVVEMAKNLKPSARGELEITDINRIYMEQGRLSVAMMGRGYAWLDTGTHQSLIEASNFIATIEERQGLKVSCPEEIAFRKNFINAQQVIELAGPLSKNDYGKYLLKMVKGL
# EXPERIMENT SUMMARY: Relative activity of RmlA mutant Q83N with alternative NTPs
# Type: biochemical, Salmonella enterica typhimurium LT2
# REPORTED CONDITIONS: 10 mM Glucose-1-phosphate, 0.1-10 μM enzyme, 5 mM NTP, 10 mM MgCl2, pH 8.0, 37° C.
ASSAY METRIC: Relative activity of Q83N as compared to wt RmlA

>>> observed_result("Nc1nc2c(ncn2[C@H]2C[C@H](O)[C@@H](COP(=O)(O)OP(=O)(O)OP(=O)(O)O)O2)c(=O)[nH]1 [dGTP, 2′-deoxyguanosine-5′-triphosphate]")
0.1
>>> observed_result("O=c1ccn([C@@H]2O[C@H](COP(=O)(O)OP(=O)(O)OP(=O)(O)O)[C@@H](O)[C@H]2O)c(=O)[nH]1 [UTP, uridine-5′-triphosphate]")
0.2
>>> observed_result("Nc1ccn([C@@H]2O[C@H](COP(=O)(O)OP(=O)(O)OP(=O)(O)O)[C@@H](O)[C@H]2O)c(=O)n1 [CTP, cytidine-5′-triphosphate]")
0.7

---

Quick reference for Relative activity of Q83E as compared to wt RmlA among some compounds
# TARGET OF ASSAY: RmlA Q83E (Salmonella typhimurium, UniProt P26393, Q83E)
# Construct: His6 (pET28a) (N); made in house; host or cells: Escherichia coli BL21 (DE3)
# Sequence (P26393 whole entry Q83E): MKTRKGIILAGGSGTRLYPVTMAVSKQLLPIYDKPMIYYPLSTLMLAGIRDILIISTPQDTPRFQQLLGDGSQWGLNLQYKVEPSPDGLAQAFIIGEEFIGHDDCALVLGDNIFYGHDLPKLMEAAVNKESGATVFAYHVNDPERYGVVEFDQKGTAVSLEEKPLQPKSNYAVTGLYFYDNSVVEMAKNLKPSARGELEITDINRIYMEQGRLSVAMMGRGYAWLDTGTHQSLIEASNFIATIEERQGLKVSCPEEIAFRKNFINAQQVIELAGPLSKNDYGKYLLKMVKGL
# EXPERIMENT SUMMARY: Relative activity of RmlA mutant Q83E with alternative NTPs
# Format: biochemical, Salmonella enterica typhimurium LT2
# REPORTED CONDITIONS: 10 mM Glucose-1-phosphate, 0.1-10 μM enzyme, 5 mM NTP, 10 mM MgCl2, pH 8.0, 37° C.
ASSAY METRIC: Relative activity of Q83E as compared to wt RmlA

>>> observed_result("Nc1ncnc2c1ncn2[C@H]1C[C@H](O)[C@@H](COP(=O)(O)OP(=O)(O)OP(=O)(O)O)O1 [dATP, 2′-deoxyadenosine-5′-triphosphate]")
0.4
>>> observed_result("O=c1ccn([C@@H]2O[C@H](COP(=O)(O)OP(=O)(O)OP(=O)(O)O)[C@@H](O)[C@H]2O)c(=O)[nH]1 [UTP, uridine-5′-triphosphate]")
1.3
>>> observed_result("Nc1ccn([C@@H]2O[C@H](COP(=O)(O)OP(=O)(O)OP(=O)(O)O)[C@@H](O)[C@H]2O)c(=O)n1 [CTP, cytidine-5′-triphosphate]")
0.8
>>> observed_result("Nc1nc2c(ncn2[C@@H]2O[C@H](COP(=O)(O)OP(=O)(O)OP(=O)(O)O)[C@@H](O)[C@H]2O)c(=O)[nH]1 [GTP, guanosine-5′-triphosphate]")
2.8
>>> observed_result("Nc1ccn([C@H]2C[C@H](O)[C@@H](COP(=O)(O)OP(=O)(O)OP(=O)(O)O)O2)c(=O)n1 [dCTP, 2′-deoxycytidine-5′-triphosphate]")
1.1
>>> observed_result("Nc1nc2c(ncn2[C@H]2C[C@H](O)[C@@H](COP(=O)(O)OP(=O)(O)OP(=O)(O)O)O2)c(=O)[nH]1 [dGTP, 2′-deoxyguanosine-5′-triphosphate]")
1.7
>>> observed_result("Nc1ncnc2c1ncn2[C@@H]1O[C@H](COP(=O)(O)OP(=O)(O)OP(=O)(O)O)[C@@H](O)[C@H]1O [ATP, adenosine-5′-triphosphate]")
0.7
>>> observed_result("Cc1cn([C@H]2C[C@H](O)[C@@H](COP(=O)(O)OP(=O)(O)OP(=O)(O)O)O2)c(=O)[nH]c1=O [dTTP, 2′deoxythymidine-5′-triphosphate]")
1.0

---

Quick reference for Relative activity of Q83S as compared to wt RmlA among some compounds
# TARGET OF ASSAY: RmlA Q83S (Salmonella typhimurium, UniProt P26393, Q83S)
# Construct: His6 (pET28a) (N); made in house; host or cells: Escherichia coli BL21 (DE3)
# Sequence (P26393 whole entry Q83S): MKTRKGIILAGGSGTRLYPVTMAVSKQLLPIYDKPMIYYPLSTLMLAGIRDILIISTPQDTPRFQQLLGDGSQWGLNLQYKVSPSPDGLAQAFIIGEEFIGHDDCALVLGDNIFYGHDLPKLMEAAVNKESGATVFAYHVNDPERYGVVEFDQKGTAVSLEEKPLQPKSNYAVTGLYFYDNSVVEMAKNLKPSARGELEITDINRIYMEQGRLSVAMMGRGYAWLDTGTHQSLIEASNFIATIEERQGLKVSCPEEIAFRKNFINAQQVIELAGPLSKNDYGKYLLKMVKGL
# EXPERIMENT SUMMARY: Relative activity of RmlA mutant Q83S with alternative NTPs
# Assay type: biochemical, Salmonella enterica typhimurium LT2
# REPORTED CONDITIONS: 10 mM Glucose-1-phosphate, 0.1-10 μM enzyme, 5 mM NTP, 10 mM MgCl2, pH 8.0, 37° C.
ASSAY METRIC: Relative activity of Q83S as compared to wt RmlA

>>> observed_result("Nc1ncnc2c1ncn2[C@H]1C[C@H](O)[C@@H](COP(=O)(O)OP(=O)(O)OP(=O)(O)O)O1 [dATP, 2′-deoxyadenosine-5′-triphosphate]")
7.9
>>> observed_result("O=c1ccn([C@@H]2O[C@H](COP(=O)(O)OP(=O)(O)OP(=O)(O)O)[C@@H](O)[C@H]2O)c(=O)[nH]1 [UTP, uridine-5′-triphosphate]")
0.2
>>> observed_result("Cc1cn([C@H]2C[C@H](O)[C@@H](COP(=O)(O)OP(=O)(O)OP(=O)(O)O)O2)c(=O)[nH]c1=O [dTTP, 2′deoxythymidine-5′-triphosphate]")
0.3
>>> observed_result("Nc1nc2c(ncn2[C@@H]2O[C@H](COP(=O)(O)OP(=O)(O)OP(=O)(O)O)[C@@H](O)[C@H]2O)c(=O)[nH]1 [GTP, guanosine-5′-triphosphate]")
2.2
>>> observed_result("Nc1ccn([C@@H]2O[C@H](COP(=O)(O)OP(=O)(O)OP(=O)(O)O)[C@@H](O)[C@H]2O)c(=O)n1 [CTP, cytidine-5′-triphosphate]")
1.5
>>> observed_result("Nc1nc2c(ncn2[C@H]2C[C@H](O)[C@@H](COP(=O)(O)OP(=O)(O)OP(=O)(O)O)O2)c(=O)[nH]1 [dGTP, 2′-deoxyguanosine-5′-triphosphate]")
0.6
>>> observed_result("Nc1ncnc2c1ncn2[C@@H]1O[C@H](COP(=O)(O)OP(=O)(O)OP(=O)(O)O)[C@@H](O)[C@H]1O [ATP, adenosine-5′-triphosphate]")
14.0
>>> observed_result("Nc1ccn([C@H]2C[C@H](O)[C@@H](COP(=O)(O)OP(=O)(O)OP(=O)(O)O)O2)c(=O)n1 [dCTP, 2′-deoxycytidine-5′-triphosphate]")
1.4
